assayed system: melanocortin-3 receptor (human, UniProt P41968 1-323)
Sequence (P41968 whole entry): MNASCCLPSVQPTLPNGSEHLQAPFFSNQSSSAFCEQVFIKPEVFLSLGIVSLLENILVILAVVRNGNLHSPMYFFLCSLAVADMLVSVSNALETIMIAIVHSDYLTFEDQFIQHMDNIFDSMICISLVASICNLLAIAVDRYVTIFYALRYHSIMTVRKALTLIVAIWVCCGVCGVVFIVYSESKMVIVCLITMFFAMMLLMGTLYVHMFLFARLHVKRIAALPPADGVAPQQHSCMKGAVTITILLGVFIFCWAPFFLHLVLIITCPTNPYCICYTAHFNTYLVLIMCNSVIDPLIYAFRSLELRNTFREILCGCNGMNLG
assay text: cell-based or functional assay
Bridge positions count the residues as written; N and C are the ends. Square brackets hold non-standard residues; d marks the D form.
// values below are reported Ratios of EC50 values: MC3/4

binder="Ac-RC[dA]Q[dF]RWC-NH2 (disulfide 2-8; SMILES CC(=O)N[C@@H](CCCNC(=N)N)C(=O)N[C@H]1CSSC[C@@H](C(N)=O)NC(=O)[C@H](Cc2c[nH]c3ccccc23)NC(=O)[C@H](CCCNC(=N)N)NC(=O)[C@@H](Cc2ccccc2)NC(=O)[C@H](CCC(N)=O)NC(=O)[C@@H](C)NC1=O) [Compound 8: Ac-Arg-cyclo[Cys-D-Ala-Gln-D-Phe-Arg-Trp-Cys]-NH2]" recorded_result=5
binder="Ac-RC[dA]Y[dF]RWC-NH2 (disulfide 2-8; SMILES CC(=O)N[C@@H](CCCNC(=N)N)C(=O)N[C@H]1CSSC[C@@H](C(N)=O)NC(=O)[C@H](Cc2c[nH]c3ccccc23)NC(=O)[C@H](CCCNC(=N)N)NC(=O)[C@@H](Cc2ccccc2)NC(=O)[C@H](Cc2ccc(O)cc2)NC(=O)[C@@H](C)NC1=O) [Compound 11: Ac-Arg-cyclo[Cys-D-Ala-Tyr-D-Phe-Arg-Trp-Cys]-NH2]" recorded_result="> 22.2"

// switching to the query binder
Incoming: For the binder Ac-RC[dA]W[dF]RWC-NH2 (disulfide 2-8; SMILES CC(=O)N[C@@H](CCCNC(=N)N)C(=O)N[C@H]1CSSC[C@@H](C(N)=O)NC(=O)[C@H](Cc2c[nH]c3ccccc23)NC(=O)[C@H](CCCNC(=N)N)NC(=O)[C@@H](Cc2ccccc2)NC(=O)[C@H](Cc2c[nH]c3ccccc23)NC(=O)[C@@H](C)NC1=O) [Compound 7: Ac-Arg-cyclo[Cys-D-Ala-Trp-D-Phe-Arg-Trp-Cys]-NH2] , what Ratios of EC50 values: MC3/4 is on record?
Outgoing: > 290
